STUDY TARGET: Horse liver alcohol dehydrogenase or HLADH (Equus caballus)
Construct: whether it is derived from yeast (i.e. is a YADH) from horse liver (HLADH), or from another source; from tissue; host or cells: horse liver
Sequence (P00327 whole entry): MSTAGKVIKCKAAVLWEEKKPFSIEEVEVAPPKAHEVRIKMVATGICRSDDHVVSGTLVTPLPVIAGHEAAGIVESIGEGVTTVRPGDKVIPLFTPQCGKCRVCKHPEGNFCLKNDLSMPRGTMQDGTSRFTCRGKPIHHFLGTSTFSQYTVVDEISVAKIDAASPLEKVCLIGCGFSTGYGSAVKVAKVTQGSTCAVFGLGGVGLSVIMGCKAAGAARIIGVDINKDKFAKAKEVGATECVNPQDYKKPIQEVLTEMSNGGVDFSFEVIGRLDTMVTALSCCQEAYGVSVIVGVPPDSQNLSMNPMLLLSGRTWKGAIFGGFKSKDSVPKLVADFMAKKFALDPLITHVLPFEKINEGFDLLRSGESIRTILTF
ASSAY TEXT: Example 4: activity of immobilised HLADH in the reduction of aldehydes (NADH absorbance decrease at 380 nm)
Type: biochemical
EXPERIMENTAL CONDITIONS: aldehyde as substrate (2mM), NADH (1mM), pH 7.0, 22 °C, initial rate over 2 minutes
The molecules listed here are annotated with their activity.

MOLECULE: CC(C)=CCCC(C)CC=O (centres unmarked)
activity: 0.75 micromoles NADH/min/mg protein

MOLECULE: O=C/C=C/c1ccccc1 [trans-cinnamaldehyde]
activity: 1.36 micromoles NADH/min/mg protein

MOLECULE: O=Cc1ccccc1O
activity: 0.57 micromoles NADH/min/mg protein

Quick one: activity of O=Cc1ccc(O)cc1 [p-hydroxybenzaldehyde] ?
0.94 micromoles NADH/min/mg protein

Quick one: activity of "CC(C)=CCCC(C)=CC=O" ?
0.91 micromoles NADH/min/mg protein

Quick one: activity of "O=Cc1ccc2c(c1)OCO2" ?
1.47 micromoles NADH/min/mg protein

Quick one: activity of "COc1ccc(C=O)cc1" ?
1.55 micromoles NADH/min/mg protein

Quick one: activity of "CC(C)c1ccc(C=O)cc1" ?
0.94 micromoles NADH/min/mg protein
